Data origin, for the record: paper PMC6357737

Target: UniProt:Q9P1W9
Sequence (Q9P1W9 whole entry): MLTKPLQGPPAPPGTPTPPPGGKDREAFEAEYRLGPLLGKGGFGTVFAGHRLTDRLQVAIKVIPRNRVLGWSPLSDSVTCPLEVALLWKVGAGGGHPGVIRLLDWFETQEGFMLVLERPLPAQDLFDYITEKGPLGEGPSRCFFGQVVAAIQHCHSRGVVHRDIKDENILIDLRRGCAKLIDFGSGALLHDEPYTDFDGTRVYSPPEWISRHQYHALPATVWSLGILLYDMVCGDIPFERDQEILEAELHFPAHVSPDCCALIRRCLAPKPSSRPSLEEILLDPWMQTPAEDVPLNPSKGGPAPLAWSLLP
measured parameter: IC50 (µM)
Give your result in µM as a bare value.

[in] // fetch IC50 for COc1cc(/C=N/n2c(SC)nnc2-c2ccccc2)c(Br)cc1O [GO289] ; system: UniProt:Q9P1W9
[out] 13
